Hey, just so you know, these numbers are from patent US20090048164A1.

- Target Under Test: Recombinant human Bcl-xL with a 25 amino acid truncation of its C-terminus (human) (UniProt Q07817)
- Sequence (Q07817 1-208): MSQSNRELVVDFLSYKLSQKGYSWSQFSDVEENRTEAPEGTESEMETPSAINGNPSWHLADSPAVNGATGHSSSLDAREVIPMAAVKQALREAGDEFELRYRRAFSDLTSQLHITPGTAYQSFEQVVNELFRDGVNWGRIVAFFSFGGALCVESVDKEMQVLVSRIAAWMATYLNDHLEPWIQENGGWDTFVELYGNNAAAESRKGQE
- Method Notes: competition phage ELISA
The binders listed here are annotated with their log10(IC50).
Readout Type: log10(IC50) (log10 of the value in nM)

- Binder: "PSSTMEQVGRQLAIIGDDINRRYDSE [Bak BH3 G6E, phage-displayed]"
  Value Reported: 1.15
- Binder: "NLWAAQRYGRELRRMSDEAVDSFKKG [Bad BH3 F19A, phage-displayed]"
  Value Reported: 1.43
- Binder: "QADIIRNIARHLAQVGDSMDRSIPPG [Bid BH3 E2A, phage-displayed]"
  Value Reported: 1.08
- Binder: "QEDIIRNIARHLAQVGDSMDRSIPAG [Bid BH3 P25A, phage-displayed]"
  Value Reported: 1.20
- Binder: "NLWEAQRYGRELRRMSDEFVDSFKKG [Bad BH3 A4E, phage-displayed]"
  Value Reported: 0.60
- Binder: "PSSTMGQVGRQLAIIGDDINRRYDSA [Bak BH3 E26A, phage-displayed]"
  Value Reported: 1.46
- Binder: "NLWAAQRYGRELRRMSDEFVASFKKG [Bad BH3 D21A, phage-displayed]"
  Value Reported: 0.30
- Binder: "QEAIIRNIARHLAQVGDSMDRSIPPG [Bid BH3 D3A, phage-displayed]"
  Value Reported: 1.18
- Binder: "PSSTMGQVGRQLAIIGDDINRRYASE [Bak BH3 D24A, phage-displayed]"
  Value Reported: 1.48
- Binder: "NLWAAQRYGRELRAMSDEFVDSFKKG [Bad BH3 R14A, phage-displayed]"
  Value Reported: 0.60
- Binder: "PSSTMGQVGRQLAAIGDDINRRYDSE [Bak BH3 I14A, phage-displayed]"
  Value Reported: 1.82
- Binder: "NAWAAQRYGRELRRMSDEFVDSFKKG [Bad BH3 L2A, phage-displayed]"
  Value Reported: 0.60
- Binder: "QEDIIRNIARHLAQVGDSMDASIPPG [Bid BH3 R21A, phage-displayed]"
  Value Reported: 1.51
- Binder: "QEDIIRNIARHLAQVGDSMDRSAPPG [Bid BH3 I23A, phage-displayed]"
  Value Reported: 1.18
